# Test system: L1210 leukemia ip in BDF1 mice, survival T/C
# assay_remarks: NCI In Vivo Anticancer Drug Screen. Data for tumor model L1210 Leukemia (intraperitoneal) in B6D2F1 (BDF1) mice
# measurement_parameters: endpoint: mean survival time; dose: 25.0 mg/kg/injection; schedule: Q04DX002 (ip); vehicle: Klucel (hydroxypropylcellulose) (HPC); higher = longer survival
Inconclusive results and toxic doses are left out.

{"molecule": "Oc1ccccc1/C=N/Sc1ccccc1.Oc1ccccc1/C=N/Sc1ccccc1.[Cl][Pd][Cl]", "T/C": "101 % of control"}
{"molecule": "CC[CH2][Pb]([CH2]CC)([CH2]CC)[O]C(=O)C(F)(F)F", "T/C": "95 % of control"}
{"molecule": "COc1ccc(OC)c(NC(=S)N/N=C(\\C)c2cc(Cl)ccc2O)c1", "T/C": "102 % of control"}
{"molecule": "NC(C(=O)O)c1ccccc1 (centres undefined)", "T/C": "104 % of control"}
{"molecule": "CN(Cc1cc(Cl)cc(Cl)c1O)C1CC2CCC1(C)C2(C)C (centres undefined)", "T/C": "96 % of control"}
{"molecule": "O=C(Nc1ccc(Cl)cc1)Oc1c(Cl)cc(S(=O)(=O)F)cc1Cl", "T/C": "94 % of control"}
{"molecule": "COc1cc2c(cc1OC)N(C(C)=O)Cc1cccn1C2", "T/C": "94 % of control"}
{"molecule": "Cc1ccc2cccc(O)c2n1", "T/C": "88 % of control"}
{"molecule": "O=C(COc1ccc(Cl)cc1Cl)Nc1ccc(NC(=O)COc2ccc(Cl)cc2Cl)cc1", "T/C": "95 % of control"}
